target: ERbeta receptor (Homo sapiens, UniProt Q92731)
Sequence (Q92731 whole entry): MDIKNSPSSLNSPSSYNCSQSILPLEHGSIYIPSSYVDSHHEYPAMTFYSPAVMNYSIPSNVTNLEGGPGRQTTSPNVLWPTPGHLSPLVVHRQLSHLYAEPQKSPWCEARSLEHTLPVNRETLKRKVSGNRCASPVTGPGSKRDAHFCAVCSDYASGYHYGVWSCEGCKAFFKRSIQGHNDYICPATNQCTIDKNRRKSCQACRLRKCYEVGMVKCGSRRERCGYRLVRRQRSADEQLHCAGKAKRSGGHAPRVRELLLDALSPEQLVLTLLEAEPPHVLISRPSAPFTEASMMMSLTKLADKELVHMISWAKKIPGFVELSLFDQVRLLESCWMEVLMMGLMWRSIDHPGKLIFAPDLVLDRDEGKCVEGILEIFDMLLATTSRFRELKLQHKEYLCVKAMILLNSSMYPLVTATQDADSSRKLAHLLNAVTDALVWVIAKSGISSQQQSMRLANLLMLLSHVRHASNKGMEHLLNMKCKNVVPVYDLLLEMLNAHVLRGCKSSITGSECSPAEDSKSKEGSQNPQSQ
pKi: −log10 of the molar value. Where a name gives a salt, the structure may show the parent alone.
Respond with Criterion met for pKi values of 8 and above, Criterion not met for values below.

Check this compound for pKi at or above 8: Oc1ccc2c3c(sc2c1)Cc1ccccc1C3c1ccc(OCCN2CCCCC2)cc1 (stereo not shown) [Example 1, trifluoroacetate]
Criterion met

In plain terms: is recorded pKi at least 8 for Oc1ccc2c(c1)C(c1ccc(OCCN3CCCCC3)cc1)c1c(ccc3cc(O)ccc13)C2 (stereo not shown) ?
Criterion met

Would you say Oc1ccc2c3c(ccc2c1)Cc1ccc(F)cc1C3c1ccc(OCCN2CCCCC2)cc1 (racemic) [Example 5] shows pKi at minimum 8?
Criterion not met

For this compound, is measured pKi 8 or higher? Oc1ccc2c(c1)Cc1sc3cc(O)ccc3c1C2c1ccc(OCCN2CCCCC2)cc1 (stereo not shown) [Example 2, trifluoroacetate]
Criterion met

Hi, just wondering whether Oc1ccc2c3c(ccc2c1)Cc1c(O)cccc1C3c1ccc(OCCN2CCCCC2)cc1 (stereo not shown) shows pKi of 8 or higher.
Criterion met
